- experiment_notes: estimated solubility by adding test solvent in aliquots to weighed solid, visual inspection
- Format: physicochemical
- experimental_parameters: organic solvent or mixture, thermodynamic from solid; heptane; at 60° C.; read-out: Solubility
measure_name: solubility

Lookup: What does the data say about its solubility? Entry: CN1CCN([C@@H]2CCCN(c3cnc(C(N)=O)c(Nc4ccc(C5CCN(CC6CCN(c7ccc(C(=O)N[C@H]8CCC(=O)NC8=O)nc7)CC6)CC5)cc4)n3)C2)C1=O [free base compound of Formula (I)]
Found: < 2 mg/mL

---

- experiment_notes: estimated solubility by adding test solvent in aliquots to weighed solid, visual inspection
- Type: physicochemical
- experimental_parameters: organic solvent or mixture, thermodynamic from solid; 2-methyltetrahydrofuran (2-MeTHF); solubility without temperature; read-out: Solubility
measure_name: solubility

Lookup: What does the data say about its solubility? Entry: CN1CCN([C@@H]2CCCN(c3cnc(C(N)=O)c(Nc4ccc(C5CCN(CC6CCN(c7ccc(C(=O)N[C@H]8CCC(=O)NC8=O)nc7)CC6)CC5)cc4)n3)C2)C1=O [free base compound of Formula (I)]
Found: < 1000 µg/mL
